# Tested on: IGROV1 ovarian
# method_description: NCI-60 one-dose screen, 48 h
# assay_conditions: 10 µM unless noted
The panel holds about 83,000 compounds, 20% with a hit somewhere; the sample as a whole holds those more often. Calls of active or inactive are those of the source. The calls were made as follows: active = growth percent below 10; inactive = the rest.
Just give me one of these, please: Y (active), N (inactive)

Data request: Can you look up the reported call for CN1CCN(c2ccc(C(=O)Nc3n[nH]c4ccc(Cc5cc(F)cc(F)c5)cc34)c(NC3CCOCC3)c2)CC1 for me?
Data returned: Y

Data request: Can you look up the reported call for Cc1cnc(Nc2ccc(OCCN3CCCC3)cc2)nc1Nc1cccc(S(=O)(=O)NC(C)(C)C)c1 for me?
Data returned: Y

Data request: Can you look up the reported call for COc1cccc2cc(-c3nc(C4CCC(C(=O)O)CC4)n4ncnc(N)c34)[nH]c12 (stereo unspecified) for me?
Data returned: Y

Data request: Can you look up the reported call for CS(=O)(=O)N1CCN(Cc2cc3nc(-c4cccc5[nH]ncc45)nc(N4CCOCC4)c3s2)CC1 for me?
Data returned: Y

Data request: Can you look up the reported call for O=C1C=CC2(NN=C(c3ccccc3)N2c2ccccc2)c2cccc(O)c21 (stereo unspecified) for me?
Data returned: N

Data request: Can you look up the reported call for O=C(NOCCO)c1cc(CN2OCCCC2=O)c(F)c(F)c1Nc1ccc(I)cc1F for me?
Data returned: N

Data request: Can you look up the reported call for COc1ccc2c(OCc3nnc4ccc(-c5ccccc5)nn34)ccnc2c1 for me?
Data returned: N

Data request: Can you look up the reported call for CCN1CCN(c2nc(C)cc(N(CCNc3ccnc4cc(Cl)ccc34)Cc3ccc4c(c3)OCO4)n2)CC1 for me?
Data returned: N

Data request: Can you look up the reported call for CC[C@H](CO)Nc1nc(NCc2ccccc2)c2ncn(C(C)C)c2n1 for me?
Data returned: N

Data request: Can you look up the reported call for CC(N)C(Cc1ccc(Cl)cc1)c1ccc(Cl)cc1 (stereo unspecified) for me?
Data returned: N

Data request: Can you look up the reported call for O=C1C=CC2(NN=C(c3ccccc3)N2c2cccc(Cl)c2)C(Cl)=C1 (stereo unspecified) for me?
Data returned: N

* * *

# System: BT-549 breast
# method_description: NCI-60 one-dose screen, 48 h
# assay_conditions: 10 µM unless noted
# Experimental: Growth inhibition of the BT-549 human tumor cell line is measured as a screen for anti-cancer activity. Cells are grown in 96 well plates and exposed to the test compound for 48 hours. Compounds are tested at a single concentration, which is 10^-5 M for most compounds. The reported endpoint is percent growth (GI% or GIPRCNT), where numbers from 0 - 100% represent growth inhibition, and numbers from -100% - 0 represent cell death. For example, a value of 40 represents 60% growth inhibition. […]
About 83,000 compounds went through this panel and 20% of them were active in at least one assay; those are over-represented in the sample as a whole. Activity calls are given as the source filed them. How the source made its calls: active means growth percent below 10; inactive means the rest.
Just give me one of these, please: active, inactive

Data request: Can you look up the reported call for CCCCCCCC(=O)SCC/C=C/[C@@H]1CC(=O)NCc2nc(co2)C2=N[C@@](C)(CS2)C(=O)N[C@@H](C(C)C)C(=O)O1 for me?
Data returned: inactive

Data request: Can you look up the reported call for CCCNC(=O)c1cn2ncnc(Nc3cc(C(=O)NC4CC4)ccc3C)c2c1C for me?
Data returned: inactive

Data request: Can you look up the reported call for CN1CC[C@H](c2c(O)cc(O)c3c(=O)cc(-c4ccccc4Cl)oc23)[C@H](O)C1 for me?
Data returned: active

Data request: Can you look up the reported call for CNS(=O)(=O)Nc1nccc(Cc2c(C)c3ccc(Oc4ncccn4)cc3oc2=O)c1F for me?
Data returned: inactive

Data request: Can you look up the reported call for Cc1cn(-c2cc(NC(=O)c3ccc(C)c(Nc4nccc(-c5cccnc5)n4)c3)cc(C(F)(F)F)c2)cn1 for me?
Data returned: inactive

Data request: Can you look up the reported call for NS(=O)(=O)c1ccc(CCN2C(=O)/C(=C\c3ccc(Cl)cc3)C=C2c2ccc3ccccc3c2)cc1 for me?
Data returned: inactive

Data request: Can you look up the reported call for C[C@@H]1COCCN1c1cc(C2([S@](C)(=N)=O)CC2)nc(-c2ccnc3[nH]ccc23)n1 for me?
Data returned: inactive

Data request: Can you look up the reported call for COc1cccc(Nc2ncnn3ccc(CN4CC[C@@H](N)[C@H](O)C4)c23)c1 for me?
Data returned: inactive

Data request: Can you look up the reported call for Cc1cnc(NC(=O)Nc2cc(Br)c(C)cc2OC[C@@H]2CNCCO2)cn1 for me?
Data returned: inactive

Data request: Can you look up the reported call for NC1(C(=O)N[C@@H](CCO)c2ccc(Cl)cc2)CCN(c2ncnc3[nH]ccc23)CC1 for me?
Data returned: active

Data request: Can you look up the reported call for Clc1ccc2c(NCCCNCc3ccc4c(c3)OCO4)ccnc2c1 for me?
Data returned: inactive

Data request: Can you look up the reported call for Cc1ccc(-c2cc3c(SCC(=O)Nc4cc(C(F)(F)F)ccc4Cl)nccn3n2)cc1 for me?
Data returned: inactive

Data request: Can you look up the reported call for CC1=CC2c3oc(-c4ccccc4)c(C(=O)c4ccccc4)c3CNC2C=C1 (configuration not stated) for me?
Data returned: inactive

Data request: Can you look up the reported call for O=C(Nc1cnn2ccc(N3CCC[C@@H]3c3cc(F)ccc3F)nc12)N1CC[C@H](O)C1 for me?
Data returned: inactive

Data request: Can you look up the reported call for COc1cnc2c(c1)C(=O)c1c-2n(CCCN2CCC(N)CC2)c(=O)c2cc([N+](=O)[O-])ccc12 for me?
Data returned: inactive

Data request: Can you look up the reported call for CC(C)c1cc(CNc2nc(Nc3cc(C4CC4)[nH]n3)cc(N3CCN(C)CC3)n2)on1 for me?
Data returned: active

Data request: Can you look up the reported call for C=CC(=O)N1CCC(Oc2cc3c(Nc4ccc(Cl)c(Cl)c4F)ncnc3cc2OC)CC1 for me?
Data returned: active

* * *

# Test system: 786-0 renal
# method_description: NCI-60 one-dose screen, 48 h
# assay_conditions: 10 µM unless noted
# Experimental: Cells are grown in 96 well plates and exposed to the test compound for 48 hours. Compounds are tested at a single concentration, which is 10^-5 M for most compounds. The reported endpoint is percent growth (GI% or GIPRCNT), where numbers from 0 - 100% represent growth inhibition, and numbers from -100% - 0 represent cell death. For example, a value of 40 represents 60% growth inhibition. A value of 0 means no net growth occurred over the course of the experiment. […]
About 83,000 compounds went through this panel and 20% of them were active in at least one assay; those are over-represented in the sample as a whole. Activity calls are given as the source filed them. Rule for the calls: active = growth percent below 10; inactive = the rest.
Just give me one of these, please: true = active, false = inactive

Data request: Can you look up the reported call for CCC1(/C=N/NC(N)=S)NC(=O)NC1=O (configuration not stated) for me?
Data returned: false

Data request: Can you look up the reported call for CN1CC[C@@H](c2c(O)cc(O)c3c(=O)cc(-c4ccccc4Cl)oc23)[C@@H]1CO for me?
Data returned: true

Data request: Can you look up the reported call for C[C@@H](N)c1ccc(C(=O)Nc2ccnc3[nH]ccc23)cc1 for me?
Data returned: false

Data request: Can you look up the reported call for Cc1cc(C(=O)NOCCO)c(Nc2ccc(I)cc2F)n(C)c1=O for me?
Data returned: false

Data request: Can you look up the reported call for CCc1nc2ccc(Cc3ccc(C(=O)NO)cc3)cc2c(=O)n1CCc1ccccc1 for me?
Data returned: true

Data request: Can you look up the reported call for COc1cc(NCCCN)c2ncccc2c1 for me?
Data returned: false

Data request: Can you look up the reported call for Nc1c2c(c(O)c3c1=C(CO)C=N3)=NCCS2=O (configuration not stated) for me?
Data returned: false

* * *

# System: OVCAR-8 ovarian
# method_description: NCI-60 one-dose screen, 48 h
# assay_conditions: 10 µM unless noted
This is part of a sample that, as a whole, favours compounds with a hit. Of some 83,000 tested, about 20% had one in any assay. The source made the active and inactive calls. How the source made its calls: active means growth percent below 10; inactive means the rest.
Just give me one of these, please: active, inactive

Data request: Can you look up the reported call for CC(=O)c1cnc2ccc(-c3cc(Cl)c(O)c(Cl)c3)nc2c1NC1CCC(CN(C)C)CC1 (stereo unspecified) for me?
Data returned: active

Data request: Can you look up the reported call for Cn1cnc(-c2cc3nccc(Oc4ccc(NC(=S)NC(=O)Cc5ccccc5)cc4F)c3s2)c1 for me?
Data returned: inactive

Data request: Can you look up the reported call for O=C(Nc1ccc(C(=O)Nc2ccc(C3=NCCCN3)cc2)cc1)Nc1ccc(C2=NCCCN2)cc1 for me?
Data returned: inactive

Data request: Can you look up the reported call for COc1ccc(-n2c(=O)c3ccccc3n(Cc3ccc(C(=O)NO)cc3)c2=O)cc1 for me?
Data returned: active

Data request: Can you look up the reported call for Cc1cc(N2CCOCC2)nc(N(CCNc2ccnc3cc(Cl)ccc23)Cc2cccs2)n1 for me?
Data returned: active

Data request: Can you look up the reported call for COc1cc2ncnc(Nc3ccc(F)c(Cl)c3)c2cc1NC(=O)/C=C/CN1CCCCC1 for me?
Data returned: active
